- assayedTarget: cIAP1-BIR3 (Homo sapiens, UniProt Q13490)
- Sequence (Q13490 260-352 limits assumed): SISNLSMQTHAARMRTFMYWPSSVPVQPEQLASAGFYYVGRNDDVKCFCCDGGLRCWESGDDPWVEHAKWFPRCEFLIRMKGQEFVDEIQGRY
- assayProcedure: Biacore SPR solution competition binding assay vs smac7 mer peptide, cIAP1-BIR3
- settings: citrate salt form tested; 6 nM cIAP1-BIR3; 25° C.; read-out: CIAP-BIR3 Binding Biacore (Competitive) EC50
Measured EC50 accompanies every entry in the list below.

See these solved cases before continuing.
compound="CN[C@@H](C)C(=O)N[C@@H](Cc1ccc(NC(=O)CCCCCCCC(=O)Nc2ccc(C[C@H](NC(=O)[C@H](C)NC)C(=O)N3CCC[C@H]3c3cncc(C(=O)c4ccc(F)cc4)c3)cc2)cc1)C(=O)N1CCC[C@H]1c1cncc(C(=O)c2ccc(F)cc2)c1 [Example 2E]" quantity=EC50 val="0.73 to 0.81 nM"
compound="CN[C@@H](C)C(=O)N[C@@H](CCCCNC(=O)CCCCCCCCC(=O)NCCCC[C@H](NC(=O)[C@H](C)NC)C(=O)N1CCC[C@H]1c1cncc(C(=O)c2ccc(F)cc2)c1)C(=O)N1CCC[C@H]1c1cncc(C(=O)c2ccc(F)cc2)c1 [Example 1G]" quantity=EC50 val="0.71 nM"

Now for the compound whose EC50 we want.
// EC50 lookup, compound = CN[C@@H](C)C(=O)N[C@@H](Cc1ccc(NC(=O)CCCCCC(=O)Nc2ccc(C[C@H](NC(=O)[C@H](C)NC)C(=O)N3CCC[C@H]3c3cncc(C(=O)c4ccc(F)cc4)c3)cc2)cc1)C(=O)N1CCC[C@H]1c1cncc(C(=O)c2ccc(F)cc2)c1 [Example 2A] , result: 0.73 to 0.74 nM
